Ref: patent US20220380357A1

# Test system: PANC-1. epithelioid carcinoma of the pancreas cell line bearing KRas^G12D oncogenic mutation
# ASSAY_INFO: Antiproliferative MTS assay, PANC-1 cells
# Assay type: cell-based
# MEASUREMENT_CONDITIONS: Homo sapiens, PANC-1, 72 h, compounds 1-23 and 47-52 median of experiments, 24-46 estimations and/or preliminary results, read-out: IC50 values: cell proliferation inhibition, Panc-1
pIC50: −log10 of the molar value.
ASSAY_METRIC: pIC50

Worked set:
Input: So what does the record say about pIC50 for COc1cc(CCOc2cc3c(cc2OC)CCN(C(=O)NCc2cocn2)C3c2ccc(C(F)(F)F)cc2C)ccc1N (stereo not shown) [Compound 34] ?
Output: 6.40

Input: Another compound to check: COc1cc(CCOc2cc3c(cc2OC)CCN(C(=O)NCc2ccon2)C3c2ccc(C(F)(F)F)cc2C)ccc1N (stereo not shown) [Compound 39]
Output: 6.22

Input: Another compound to check: COc1ccc(C2c3cc(OCCc4ccc(N)c(OC)c4)c(OC)cc3CCN2C(=O)NCc2cocn2)c(C)c1 (stereo not shown) [Compound 35]
Output: 6.40

Input: Another compound to check: CCNC(=O)N1CCc2cc(OC)c(OCCc3ccc(OC)c(N)c3)cc2C1c1ccc(OC)cc1C (stereo not shown) [Compound 11]
Output: 6.70

P = COc1ccc(CCOc2cc3c(cc2OC)CCN(C(=O)N[C@@H](C)C(F)(F)F)C3c2ccc(C)cc2C)cc1N (stereo partly shown) [Compound 48]
Q = CCNC(=O)N1CCc2cc(OC)c(OCCc3ccc(F)c(N)c3)cc2C1c1ccc(C)cc1C (stereo not shown) [Compound 7]
Input: Pick one, P or Q : lowest reported pIC50. Indicate which entry you chose by stating its label.
Output: Q

---

# Test system: PANC-1. epithelioid carcinoma of the pancreas cell line bearing KRas^G12D oncogenic mutation
# ASSAY_INFO: Antiproliferative MTS assay, PANC-1 cells
# Format: cell-based
# MEASUREMENT_CONDITIONS: Homo sapiens, PANC-1, 72 h, compounds 1-23 and 47-52 median of experiments, 24-46 estimations and/or preliminary results, read-out: IC50 values: cell proliferation inhibition, Panc-1
ASSAY_METRIC: IC50 (nM)

Worked set:
Input: So what does the record say about IC50 for COc1ccc(CCOc2cc3c(cc2OC)CCN(C(=O)NCc2cocn2)C3c2ccc(C(F)(F)F)cc2C)cc1N (stereo not shown) ?
Output: 300

Input: Another compound to check: CCNC(=O)N1CCc2cc(OC)c(OCCc3ccc(N)c(OC)c3)cc2C1c1ccc(F)cc1C (stereo not shown)
Output: 400

Input: Another compound to check: CCNC(=O)N1CCc2cc(OC)c(OCCc3ccc(N)c(OC)c3)cc2C1c1ccc(C(F)(F)F)cc1C (stereo not shown)
Output: 400

Input: Another compound to check: CCNC(=O)N1CCc2cc(OC)c(OCCc3ccc(OC)c(N)c3)cc2C1c1ccc(C)cc1C (stereo not shown)
Output: 200

P = COc1ccc(C2c3cc(OCCc4ccc(N)c(OC)c4)c(OC)cc3CCN2C(=O)NCC(F)(F)F)c(C)c1 (stereo not shown)
Q = COc1cc(O)cc(CCOc2cc3c(cc2OC)CCN(C(=O)NCc2cocn2)C3c2ccc(C)cc2C)c1 (stereo not shown)
R = COc1cc(CCOc2cc3c(cc2OC)CCN(C(=O)NCC(F)(F)F)C3c2ccc(C)cc2C)ccc1N (stereo not shown)
Input: hey, can you rank those compounds up there by IC50? biggest number first please The reply should contain the labels ordered as requested.
Output: Q, P, R

---

# System: PANC-1. epithelioid carcinoma of the pancreas cell line bearing KRas^G12D oncogenic mutation
# ASSAY_INFO: Antiproliferative MTS assay, PANC-1 cells
# Assay type: cell-based
# MEASUREMENT_CONDITIONS: Homo sapiens, PANC-1, 72 h, compounds 1-23 and 47-52 median of experiments, 24-46 estimations and/or preliminary results, read-out: IC50 values: cell proliferation inhibition, Panc-1
ASSAY_METRIC: IC50 (nM)

1 = COc1ccc(C2c3cc(OCCc4ccc(OC)c(N)c4)c(OC)cc3CCN2C(=O)NCc2ccon2)c(C)c1 (stereo not shown) [Compound 21]
2 = COc1ccc(CCOc2cc3c(cc2OC)CCN(C(=O)NCC(F)(F)F)C3c2ccc(F)cc2C)cc1N (stereo not shown) [Compound 27]
Input: Pick one, 1 or 2 : lowest reported IC50. Indicate which entry you chose by stating its label.
Output: 1

a = COc1ccc(C2c3cc(OCCc4ccc(OC)c(N)c4)c(OC)cc3CCN2C(=O)N[C@@H](C)C(F)(F)F)c(C)c1 (stereo partly shown) [Compound 50]
b = COc1cc(CCOc2cc3c(cc2OC)CCN(C(=O)NCc2ccon2)C3c2ccc(C)cc2C)ccc1N (stereo not shown) [Compound 38]
Input: Which shows the larger IC50 value: a or b ? Indicate which entry you chose by stating its label.
Output: b

---

# System: RPMI. myeloma cell line bearing KRas^G12A oncogenic mutation
# ASSAY_INFO: Antiproliferative MTS assay, RPMI cells
# Format: cell-based
# MEASUREMENT_CONDITIONS: 72 h, compounds 1-23 and 47-52 median of experiments, 24-46 estimations and/or preliminary results, read-out: IC50 values: cell proliferation inhibition, RPMI
pIC50: −log10 of the molar value.
ASSAY_METRIC: pIC50

Worked set:
Input: So what does the record say about pIC50 for CCNC(=O)N1CCc2cc(OC)c(OCCc3ccc(N)c(OC)c3)cc2C1c1ccc(C)cc1C (stereo not shown) [Compound 9] ?
Output: 6.70

Input: Another compound to check: COc1ccc(CCOc2cc3c(cc2OC)CCN(C(=O)NCc2ccon2)C3c2ccc(Cl)cc2C)cc1N (stereo not shown) [Compound 23]
Output: 7.00

Input: Another compound to check: CCNC(=O)N1CCc2cc(OC)c(OCCc3ccc(OC)c(O)c3)cc2C1c1ccc(C)cc1C (stereo not shown) [Compound 5]
Output: 7.00

Input: Another compound to check: COc1cc(CCOc2cc3c(cc2OC)CCN(C(=O)NCC(F)(F)F)C3c2ccc(C)cc2C)ccc1N (stereo not shown) [Compound 43]
Output: 7.00

I = COc1ccc(C2c3cc(OCCc4ccc(OC)c(N)c4)c(OC)cc3CCN2C(=O)NCc2ccon2)c(C)c1 (stereo not shown) [Compound 21]
II = COc1cc(CCOc2cc3c(cc2OC)CCN(C(=O)NCc2ccon2)C3c2ccc(C(F)(F)F)cc2C)ccc1N (stereo not shown) [Compound 39]
Input: Pick one, I or II : lowest reported pIC50. Indicate which entry you chose by stating its label.
Output: II
(II: 6.52, I: 7.00)

---

# Tested on: PANC-1. epithelioid carcinoma of the pancreas cell line bearing KRas^G12D oncogenic mutation
# ASSAY_INFO: Antiproliferative MTS assay, PANC-1 cells
# Type: cell-based
# MEASUREMENT_CONDITIONS: Homo sapiens, PANC-1, 72 h, compounds 1-23 and 47-52 median of experiments, 24-46 estimations and/or preliminary results, read-out: IC50 values: cell proliferation inhibition, Panc-1
pIC50: −log10 of the molar value.
ASSAY_METRIC: pIC50

Input: So what does the record say about pIC50 for CCNC(=O)N1CCc2cc(OC)c(OCCc3ccc(N)c(OC)c3)cc2C1c1ccc(C)cc1C (stereo not shown) [Compound 9] ?
Output: 6.52

Input: Another compound to check: COc1ccc(CCOc2cc3c(cc2OC)CCN(C(=O)NCc2cocn2)C3c2ccc(Cl)cc2C)cc1N (stereo not shown) [Compound 18]
Output: 6.70

Input: Another compound to check: COc1cc(CCOc2cc3c(cc2OC)CCN(C(=O)NCc2cocn2)C3c2ccc(Cl)cc2C)ccc1N (stereo not shown) [Compound 37]
Output: 6.40

1 = COc1cc(CCOc2cc3c(cc2OC)CCN(C(=O)NCc2cocn2)C3c2ccc(C)cc2C)ccc1N (stereo not shown) [Compound 33]
2 = CCNC(=O)N1CCc2cc(OC)c(OCCc3ccc(OC)c(O)c3)cc2C1c1ccc(C)cc1C (stereo not shown) [Compound 5]
Input: Pick one, 1 or 2 : lowest reported pIC50. Indicate which entry you chose by stating its label.
Output: 1

A = COc1cc(CCOc2cc3c(cc2OC)CCN(C(=O)NCc2ccon2)C3c2ccc(F)cc2C)ccc1N (stereo not shown) [Compound 41]
B = COc1ccc(CCOc2cc3c(cc2OC)CCN(C(=O)NCC(F)(F)F)C3c2ccc(Cl)cc2C)cc1N (stereo not shown) [Compound 28]
Input: Which shows the larger pIC50 value: A or B ? Indicate which entry you chose by stating its label.
Output: B
(B: 6.70, A: 6.15)

---

# System: H358. non-small cell lung cancer line bearing KRas^G12C oncogenic mutation
# ASSAY_INFO: Antiproliferative MTS assay, H358 cells
# Type: cell-based
# MEASUREMENT_CONDITIONS: Homo sapiens, NCI-H358, 72 h, compounds 1-23, 47-52 and Reference Example 1 median of experiments, 24-46 estimations and/or preliminary results, read-out: IC50 values: cell proliferation inhibition, H358
ASSAY_METRIC: IC50 (nM)

Worked set:
Input: So what does the record say about IC50 for COc1cc(CCOc2cc3c(cc2OC)CCN(C(=O)NCc2ccon2)C3c2ccc(C)cc2C)ccc1N (stereo not shown) [Compound 38] ?
Output: 500

Input: Another compound to check: COc1cc(O)cc(CCOc2cc3c(cc2OC)CCN(C(=O)NCc2cocn2)C3c2ccc(C)cc2C)c1 (stereo not shown) [Compound 1]
Output: 1500

Input: Another compound to check: CCNC(=O)N1CCc2cc(OC)c(OCCc3ccc(N)c(OC)c3)cc2C1c1ccc(OC)cc1C (stereo not shown) [Compound 30]
Output: 400

Input: Another compound to check: COc1cc(CCOc2cc3c(cc2OC)CCN(C(=O)NCc2cocn2)C3c2ccc(C)cc2C)ccc1N (stereo not shown) [Compound 33]
Output: 800

P = CCNC(=O)N1CCc2cc(OC)c(OCCc3ccc(OC)c([N+](=O)[O-])c3)cc2C1c1ccc(C)cc1C (stereo not shown) [Compound 8]
Q = COc1ccc(CCOc2cc3c(cc2OC)CCN(C(=O)NCc2ccon2)C3c2ccc(Cl)cc2C)cc1N (stereo not shown) [Compound 23]
Input: Which shows the larger IC50 value: P or Q ? Indicate which entry you chose by stating its label.
Output: P
(P: 200 nM, Q: 100 nM)
